# METHOD DESCRIPTION: absorption spectrum (maximum absorption wavelength, molar extinction coefficient)
# Type: physicochemical
QUANTITY: maximum absorption wavelength (nm)

{"MOLECULE": "COc1c(NCC2CCC(C(=O)NCCCCS(=O)(=O)O)CC2)c2c(=O)cc(OC)c3c4c(OC)cc(=O)c5c(O)c(NCC6CCC(C(=O)NCCCCS(=O)(=O)O)CC6)c6c(c(c1CC(C)=C6)c23)c54 (centres unmarked) [HC-13b-C4-SO3H]", "RESULT UNIT": "nm", "VALUE REPORTED": 622}
{"MOLECULE": "COCCOCCOCCOCCOCCOCCOCCOCCOCCNC(=O)C1CCC(CNc2c3c4c5c(c(OC)c(=O)c6c(NCC7CCC(C(=O)NCCOCCOCCOCCOCCOCCOCCOCCOCCOC)CC7)cc(OC)c(c7c(OC)cc(O)c(c2=O)c74)c65)C(C(C)=O)C(C)=C3)CC1 (centres unmarked) [HB-13d-NH-PEG8]", "RESULT UNIT": "nm", "VALUE REPORTED": 628}
{"MOLECULE": "COc1c2c3c4c(c(NC(CS)C(=O)O)c(=O)c5c(NC(CS)C(=O)O)cc(OC)c(c6c(OC)cc(O)c(c1=O)c63)c54)C=C(C)C2C(C)=O (centres unmarked) [HB-25c]", "RESULT UNIT": "nm", "VALUE REPORTED": 632}
{"MOLECULE": "COCCOCCC(=O)OC1CCC(Nc2c(NC3CCC(OC(=O)CCOCCOC)C3)c3c(=O)cc(OC)c4c5c(OC)cc(=O)c6c(O)c(OC)c7c(c(c2C=C(C)C7C(C)=O)c34)c65)C1 (centres unmarked) [HB-20a-PEG1]", "RESULT UNIT": "nm", "VALUE REPORTED": 624}
{"MOLECULE": "COc1c2c3c4c(c(NCC5CCC(C(=O)O)CC5)c(=O)c5c(NCC6CCC(C(=O)O)CC6)cc(OC)c(c6c(OC)cc(O)c(c1=O)c63)c54)C=C(C)C2C(C)=O (centres unmarked) [HB-13c]", "RESULT UNIT": "nm", "VALUE REPORTED": 621}

###

# METHOD DESCRIPTION: absorption spectrum (maximum absorption wavelength, molar extinction coefficient)
# Assay type: physicochemical
Below is a list of entries, each paired with its recorded molar extinction coefficient value.

{"COMPOUND": "COc1c(NC(CS)C(=O)O)c2c(=O)cc(OC)c3c4c(OC)cc(=O)c5c(O)c(NC(CS)C(=O)O)c6c(c(c1C(C(C)=O)C(C)=C6)c23)c54 (stereo not drawn) [HB-25b]", "molar extinction coefficient": "20,500 M^−1cm^−1"}
{"COMPOUND": "COc1c2c3c4c(c(NC5CCCC(C(=O)O)C5)c(=O)c5c(NC6CCCC(C(=O)O)C6)cc(OC)c(c6c(OC)cc(O)c(c1=O)c63)c54)C=C(C)C2C(C)=O (stereo not drawn) [HB-15c]", "molar extinction coefficient": "28,000 M^−1cm^−1"}
{"COMPOUND": "COc1c2c3c4c(c(NCCCC(=O)O)c(=O)c5c(O)cc(OC)c(c6c(OC)cc(NCCCC(=O)O)c(c1=O)c63)c54)C=C(C)C2", "molar extinction coefficient": "27,000 M^−1cm^−1"}
{"COMPOUND": "CCCCCCNc1c2c3c4c(c(OC)c(=O)c5c(NCCCCCC)cc(OC)c(c6c(OC)cc(O)c(c1=O)c63)c54)CC(C)=C2 [HC-34d]", "molar extinction coefficient": "32,000 M^−1cm^−1"}
{"COMPOUND": "COc1c(O)c2c(=O)cc(OC)c3c4c(OC)cc(=O)c5c(NCC6CCC(C(=O)NCCS(=O)(=O)O)CC6)c(NCC6CCC(C(=O)NCCS(=O)(=O)O)CC6)c6c(c(c1CC(C)=C6)c23)c54 (stereo not drawn) [HC-13a-C2-SO3H]", "molar extinction coefficient": "31,000 M^−1cm^−1"}
{"COMPOUND": "CCNNc1c(NNCC)c2c(=O)cc(OC)c3c4c(OC)cc(=O)c5c(O)c(OC)c6c(c(c1C=C(C)C6C(C)=O)c23)c54 (stereo not drawn) [HB-36a]", "molar extinction coefficient": "30,500 M^−1cm^−1"}
